Hello, the source for this data is the supplement of paper PMC12783771, in case you need it.

Overview of reported sfGFP reporter fluorescence across a group of variants:
B1: library; numbered along this chain (parent)
chain: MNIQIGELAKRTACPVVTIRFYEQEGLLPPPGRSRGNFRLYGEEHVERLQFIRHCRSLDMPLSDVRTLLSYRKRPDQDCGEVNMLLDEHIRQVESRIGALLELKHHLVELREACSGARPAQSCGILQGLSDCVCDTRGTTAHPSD

Variants of: B1
protocolText: sfGFP reporter fluorescence (15 h) (µM FITC); higher = higher leak
testContext: library round: Round 1; ligand: none
Field format: numeric only.

D64L K104V L107R
0.0627
I90L G128T D135A
0.0632
N83T E112L
0.0619
K104V R111A
0.0644
L107C G128I D131C
0.657

// sfGFP reporter fluorescence lookup, variant = L107C G128I D135A P143K , result: 0.787

Field sfGFP reporter fluorescence (entry D131A D135S ) reads 0.0699

sfGFP reporter fluorescence in this record for D64T E112I D135A : 0.0864

Please fill in: sfGFP reporter fluorescence reported for E109L D135P = 0.0655

// sfGFP reporter fluorescence lookup, variant = N83T D131A , result: 0.0649

E94D K104V yielded sfGFP reporter fluorescence of 0.0655

# sfGFP reporter fluorescence (variant: P61E D64K D131C ) is 0.108

Input D64K C114I . Output sfGFP reporter fluorescence: 0.0599

sfGFP reporter fluorescence reading for R111I C134P : 0.0589

Looking up N83T P143W , I found its sfGFP reporter fluorescence recorded as 0.0657

# sfGFP reporter fluorescence of N83T V108L D131C P143T = 0.0636

For record M60L P61D D64K the listed sfGFP reporter fluorescence is 0.237

Quick note, sfGFP reporter fluorescence for D131H D135P landed at 0.0673

Record D64T G128I D135A , field sfGFP reporter fluorescence: 0.449

Notebook: D64K R111L , sfGFP reporter fluorescence read as 0.0649

sfGFP reporter fluorescence reported for this variant D64K K104E : 0.0882

response.value for L100V G128I (field: sfGFP reporter fluorescence) = 0.0908
